Entries and their IC50 values follow.
Target: Full length DGKζ (in-house protein M1-V929) (Homo sapiens)
Construct: His (N); TEV site (N)
Assay: Biochemical DGK IC50 assay (ADP-Glo, lipid micelle substrate), DGKζ
Details: 1 hour preincubation, 1 hour reaction, room temperature
reportedMetric: IC50 (nM)

>>> resultnumber("CCCn1c(CC#N)nc2c(N3C[C@@H](C)N(C(C)c4ccc5c(c4)OC(C)(C)CO5)C[C@@H]3C)nc(=O)n(C)c21 (stereo partly drawn)")
4
>>> resultnumber("CC(c1ccc2c(c1)OC(F)(F)C(F)(F)O2)N1C[C@H](C)N(c2nc(=O)n(C)c3c2nc(CC#N)n3C)C[C@H]1C (mixture of isomers) [Compound A79]")
16
>>> resultnumber("CCn1c(CC#N)nc2c(N3C[C@@H](C)N(C(C)c4cccc(C)c4)C[C@@H]3C)nc(=O)n(C)c21 (stereo partly drawn)")
410
>>> resultnumber("COc1cc(F)ccc1C(C)N1C[C@H](C)N(c2cc(=O)n(C)c3c2nc(CC#N)n3C)C[C@H]1C (single isomer, unassigned) [Compound A4b]")
64
>>> resultnumber("CCn1c(CC#N)nc2c(N3C[C@@H](C)N(C(C)c4ccc5c(c4)OC(C)(C)CC5)C[C@@H]3C)nc(=O)n(C)c21 (single isomer, unassigned) [Compound A94b]")
532
>>> resultnumber("CCn1c(CC#N)nc2c(N3C[C@@H](C)N(C(C)c4ccc5c(c4F)OC(C)(C)O5)C[C@@H]3C)c(F)c(=O)n(C)c21 (single isomer, unassigned) [Compound A190a]")
3
>>> resultnumber("CCn1c(CC#N)nc2c(N3C[C@@H](C)N(C(C)c4ccc5c(c4)OC(C)(CC)O5)C[C@@H]3C)nc(=O)n(C)c21 (stereo partly drawn)")
26
>>> resultnumber("CCn1c(CC#N)nc2c(N3C[C@@H](C)N(C(C)c4cccc(N5CC6(COC6)C5)c4)C[C@@H]3C)nc(=O)n(C)c21 (stereo partly drawn)")
594
>>> resultnumber("CCn1c(CC#N)nc2c(N3C[C@@H](C)N(C(C)c4ccnc(OC(C)C)c4)C[C@@H]3C)nc(=O)n(C)c21 (stereo partly drawn)")
48
>>> resultnumber("CC[C@@H]1CN(c2nc(=O)n(C)c3c2nc(CC#N)n3CC)[C@@H](C)CN1C(C)c1ccc2c(c1)OC(C)(C)CO2 (stereo partly drawn)")
2.3
>>> resultnumber("Cc1ccc(C(C)N2C[C@H](C)N(c3cc(=O)n(C)c4c3nc(CC#N)n4C)C[C@H]2C)c(C(F)(F)F)c1 (single isomer, unassigned) [Compound A8a]")
1480
>>> resultnumber("CCn1c(CC#N)nc2c(N3C[C@@H](C)N(C(C)c4cccc(OC(F)(F)F)c4)C[C@@H]3C)nc(=O)n(C)c21 (stereo partly drawn)")
34

---

Biological target: Full length DGKζ (in-house protein M1-V929) (Homo sapiens, UniProt Q13574)
Construct: His (N); TEV site (N)
Sequence (Q13574 1-929 isoform Q13574-4): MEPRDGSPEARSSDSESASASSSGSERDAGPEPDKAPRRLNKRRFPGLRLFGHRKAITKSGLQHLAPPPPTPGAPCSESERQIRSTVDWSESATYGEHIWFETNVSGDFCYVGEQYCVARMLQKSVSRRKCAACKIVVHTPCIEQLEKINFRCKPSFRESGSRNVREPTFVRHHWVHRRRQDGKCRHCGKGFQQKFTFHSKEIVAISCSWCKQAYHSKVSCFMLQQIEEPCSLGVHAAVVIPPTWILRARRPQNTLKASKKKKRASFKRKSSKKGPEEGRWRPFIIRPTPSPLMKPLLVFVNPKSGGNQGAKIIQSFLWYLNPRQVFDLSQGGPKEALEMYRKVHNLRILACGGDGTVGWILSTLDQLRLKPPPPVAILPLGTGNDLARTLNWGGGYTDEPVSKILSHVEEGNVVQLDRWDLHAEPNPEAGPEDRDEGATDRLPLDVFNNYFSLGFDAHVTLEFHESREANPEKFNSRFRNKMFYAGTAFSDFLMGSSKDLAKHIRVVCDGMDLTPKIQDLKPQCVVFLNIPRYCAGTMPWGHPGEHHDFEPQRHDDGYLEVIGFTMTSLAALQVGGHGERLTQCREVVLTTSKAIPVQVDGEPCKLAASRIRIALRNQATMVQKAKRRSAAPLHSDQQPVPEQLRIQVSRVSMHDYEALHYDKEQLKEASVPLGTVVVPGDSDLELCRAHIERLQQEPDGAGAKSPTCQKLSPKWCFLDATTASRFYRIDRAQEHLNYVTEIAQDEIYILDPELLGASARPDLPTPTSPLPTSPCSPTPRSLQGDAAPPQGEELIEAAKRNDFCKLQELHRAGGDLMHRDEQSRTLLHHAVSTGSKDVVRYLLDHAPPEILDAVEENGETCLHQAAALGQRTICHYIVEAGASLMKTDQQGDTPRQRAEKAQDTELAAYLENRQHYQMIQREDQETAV
Experiment: Biochemical DGK IC50 assay (ADP-Glo, lipid micelle substrate), DGKζ
Settings: 1 hour preincubation, 1 hour reaction, room temperature
pIC50: −log10 of the molar value.
reportedMetric: pIC50

>>> resultnumber("CCn1c(CC#N)nc2c(N3C[C@@H](C)N(C(C)c4cccc(C(C)(C)O)c4)C[C@@H]3C)nc(=O)n(C)c21 (stereo partly drawn) [Compound A111]")
6.11
>>> resultnumber("CC[C@@H]1CN(c2nc(=O)n(C)c3c2nc(CC#N)n3CC)[C@@H](C)CN1C(C)c1ccc2c(n1)OC(C)(C)CO2 (single isomer, unassigned) [Compound A158a]")
8.10
>>> resultnumber("Cc1cccc(C(C)N2C[C@H](C)N(c3c(F)c(=O)n(C)c4c3nc(CC#N)n4C)C[C@H]2C)c1C(F)(F)F (single isomer, unassigned) [Compound A17b]")
6.39
>>> resultnumber("CC[C@@H]1CN(c2nc(=O)n(C)c3c2nc(CC#N)n3C)[C@@H](C)CN1C(C)c1ccc2c(n1)OC(C)(C)CO2 (single isomer, unassigned) [Compound A159b]")
6.16
>>> resultnumber("CCn1c(CC#N)nc2c(N3C[C@@H](C)N(C(C)c4cc(F)c5c(c4)OC(C)(C)O5)C[C@@H]3C)nc(=O)n(C)c21 (single isomer, unassigned) [Compound A173a]")
7.92
>>> resultnumber("CCn1c(CC#N)nc2c(N3C[C@@H](C)N(C(C)c4ccc(CN5CCOCC5)cc4)C[C@@H]3C)nc(=O)n(C)c21 (stereo partly drawn) [Compound A139]")
5.66
>>> resultnumber("CC(c1ccc2c(c1)OCCO2)N1C[C@H](C)N(c2c(F)c(=O)n(C)c3c2nc(CC#N)n3C)C[C@H]1C (single isomer, unassigned) [Compound A18a]")
7.72
>>> resultnumber("CCn1c(CC#N)nc2c(N3C[C@@H](C)N(C(C)c4ccc5c(c4)OC(F)(F)CO5)C[C@@H]3C)nc(=O)n(C)c21 (mixture of isomers) [Compound A80]")
7.51
>>> resultnumber("COC[C@H]1CN(C(C)c2ccc3c(c2)OC(C)(C)CO3)[C@H](C)CN1c1nc(=O)n(C)c2c1nc(CC#N)n2C (single isomer, unassigned) [Compound A12a]")
8.57
>>> resultnumber("CCn1c(CC#N)nc2c(N3C[C@@H](C)N(C(C)c4ccc5c(c4)C(=O)N(C)CC5)C[C@@H]3C)nc(=O)n(C)c21 (stereo partly drawn) [Compound A93]")
6.38
>>> resultnumber("CC(c1cc2c(cc1F)OCC(C)(C)O2)N1C[C@H](C)N(c2nc(=O)n(C)c3c2nc(CC#N)n3C)C[C@H]1C (stereo partly drawn) [Compound A69]")
8.22
